Species: Rattus norvegicus
Run description: Activation of soluble guanylyl cyclase in Wistar rat aortic smooth muscle cell assessed as increase of cGMP accumulation at 1 uM after 15 mins by enzyme immunoassay
Calls of active or inactive are those of the source. No cut-off for these calls is given here.
Allowed answers: active, inactive

Please review the following examples before continuing.
O=C(O)CCCC(=O)N(CCc1ccccc1OCc1ccc(-c2ccc(OCc3ccccc3)cc2)cc1)Cc1ccc(C(=O)O)cc1 = active
O=C(O)CCCCCN(CCc1ccccc1OCc1ccc(CCc2ccccc2)cc1)Cc1ccc(C(=O)O)cc1 = inactive
COc1ccc(COc2ccc(-c3ccc(COc4ccccc4CCN(CCCCC(=O)O)Cc4ccc(C(=O)O)cc4)cc3)cc2)cc1 = active
O=C(O)CCCCN(CCc1ccccc1OCc1ccc(-c2ccc(OCc3ccccc3)cc2)cc1)Cc1ccc(C(=O)O)cc1 = active
O=C(O)CCCCN(CCc1ccccc1OCc1ccc(-c2ccc(Oc3ccccc3)cc2)cc1)Cc1ccc(C(=O)O)cc1 = active

I'd appreciate the recorded outcome for `O=C(O)CCCN(CCc1ccccc1OCc1ccc(CCc2ccccc2)cc1)Cc1ccc(C(=O)O)cc1` from this test.
inactive
